- assayedTarget: T1, human IL-6 (human, UniProt P05231 30-212)
- T1 construct: also called interleukin-6
- T1 sequence (P05231 30-212 limits assumed): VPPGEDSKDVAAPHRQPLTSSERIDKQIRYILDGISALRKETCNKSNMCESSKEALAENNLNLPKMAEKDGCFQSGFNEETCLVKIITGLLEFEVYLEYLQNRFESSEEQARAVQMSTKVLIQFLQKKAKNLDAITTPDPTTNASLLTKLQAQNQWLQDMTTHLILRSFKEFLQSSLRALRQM
- experimentalDetails: SPR (Biacore T200), antibody from cell supernatant captured on Protein A, IL-6 flowed over, 37 C
Classify: yes (1) when koff is strictly less than 0.0004 s⁻¹; no (0) when koff is not.

Incoming: Take the binder anti-IL-6 antibody, heavy chain I51Q, G66D / light chain WT (antibody, human IgG1, V domains shown, Derived as m2; Engineered human IgG1) VH: EVQLVESGGGLVQPGGSLRLSCAASGFTFSPFAMSWVRQAPGKGLEWVAKQSPGGSWTYYSDTVTDRFTFSLDTSKSTAYLQMNSLRAEDTAVYYCARQLWGYYALDIWGQGTLVTVSS VL: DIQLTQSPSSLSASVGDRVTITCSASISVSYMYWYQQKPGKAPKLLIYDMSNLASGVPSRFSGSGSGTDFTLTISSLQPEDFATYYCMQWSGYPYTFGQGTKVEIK and say whether its koff is less than 0.0004 s⁻¹.
Outgoing: no (0)

Incoming: Find out if reported koff for anti-IL-6 antibody, heavy chain I51R, G66D / light chain WT (antibody, human IgG1, V domains shown, Derived as m2; Engineered human IgG1) VH: EVQLVESGGGLVQPGGSLRLSCAASGFTFSPFAMSWVRQAPGKGLEWVAKRSPGGSWTYYSDTVTDRFTFSLDTSKSTAYLQMNSLRAEDTAVYYCARQLWGYYALDIWGQGTLVTVSS VL: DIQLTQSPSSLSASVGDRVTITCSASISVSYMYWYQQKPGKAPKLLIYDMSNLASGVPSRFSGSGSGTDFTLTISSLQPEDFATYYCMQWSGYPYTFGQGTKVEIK is less than 0.0004 s⁻¹
Outgoing: yes (1)

Incoming: Lab note: koff threshold 0.0004 s⁻¹. Does this binder come in strictly under it? anti-IL-6 antibody, heavy chain T65W, G66D / light chain WT (antibody, human IgG1, V domains shown, Derived as m2; Engineered human IgG1) VH: EVQLVESGGGLVQPGGSLRLSCAASGFTFSPFAMSWVRQAPGKGLEWVAKISPGGSWTYYSDTVWDRFTFSLDTSKSTAYLQMNSLRAEDTAVYYCARQLWGYYALDIWGQGTLVTVSS VL: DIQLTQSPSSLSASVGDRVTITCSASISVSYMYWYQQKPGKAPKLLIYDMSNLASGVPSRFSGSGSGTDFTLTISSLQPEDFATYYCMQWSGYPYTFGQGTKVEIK
Outgoing: yes (1)

Incoming: Please state whether koff is below 0.0004 s⁻¹ for anti-IL-6 antibody, heavy chain T63I, G66D / light chain WT (antibody, human IgG1, V domains shown, Derived as m2; Engineered human IgG1) VH: EVQLVESGGGLVQPGGSLRLSCAASGFTFSPFAMSWVRQAPGKGLEWVAKISPGGSWTYYSDIVTDRFTFSLDTSKSTAYLQMNSLRAEDTAVYYCARQLWGYYALDIWGQGTLVTVSS VL: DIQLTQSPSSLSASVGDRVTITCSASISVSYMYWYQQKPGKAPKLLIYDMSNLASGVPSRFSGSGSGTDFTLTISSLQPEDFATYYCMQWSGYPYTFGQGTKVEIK
Outgoing: yes (1)
